growth inhibition by entry:
- PROCEDURE SUMMARY: NCI Yeast Anticancer Drug Screen. Data for the bub3 strain (AID 167)
- TEST PARAMETERS: S. cerevisiae bub3 mutant strain, at 50.0 µM (retest, dose inferred, filed as 5.0), active compounds read high
About 79,000 compounds went through this panel and 15% of them were active in at least one assay; those are over-represented in the sample as a whole.
Answer format: numeric, % implied, no suffix.

Ask: Using the record for O=C(/C=C/c1ccccc1)CCN1CCOCC1 , state its measured growth inhibition.
Result: 100

Ask: Using the record for COc1ccc(-c2cc(-c3ccc(OC)cc3OC)[n+](C)c(-c3ccc(OC)cc3OC)c2)cc1 , state its measured growth inhibition.
Result: 99

Ask: Using the record for C[n+]1cccc2c1-c1ccccc1C2=O , state its measured growth inhibition.
Result: 9

====

growth inhibition by entry:
- PROCEDURE SUMMARY: NCI Yeast Anticancer Drug Screen. Data for the mlh1 rad18 strain (AID 175)
- TEST PARAMETERS: S. cerevisiae mlh1 rad18 strain growth inhibition; at 5.0 µM (retest, dose inferred, filed as 0.5); active compounds read high
Compounds without any hit were thinned out: in the full panel of roughly 79,000, 15% have a hit.
Answer format: numeric, % implied, no suffix.

Some molecules with recorded growth inhibition:
MOLECULE	UNIT ABBREVIATION	growth inhibition
N#CC1=C(C#N)Sc2nc3cc(Cl)ccc3nc2S1	%	29
CCCCCCCCCCN(CCCCCCCCCC)C(=O)COc1c2cc(C(C)(C)C)cc1Cc1cc(C(C)(C)C)cc(c1OCC(=O)N(CCCCCCCCCC)CCCCCCCCCC)Cc1cc(C(C)(C)C)cc(c1OCC(=O)N(CCCCCCCCCC)CCCCCCCCCC)Cc1cc(C(C)(C)C)cc(c1OCC(=O)N(CCCCCCCCCC)CCCCCCCCCC)C2	%	97
Clc1ccc(C(CCOc2ccccc2Br)Cn2ccnc2)c(Cl)c1 (stereo not given)	%	79
NCc1ccc(O)c(O)c1O	%	-22
CN(C)C1=NC(N(C)C)=C2C=CC=C12	%	-6
ClC(Cl)(Cl)/C=C/c1cnc2ccccc2n1	%	3

Below: the item to evaluate.
Ask: Using the record for Nc1ccc2c(c1)NCCN2 , state its measured growth inhibition.
Result: 7

====

- PROCEDURE SUMMARY: NCI Yeast Anticancer Drug Screen. Data for the mlh1 rad18 strain (AID 175)
- TEST PARAMETERS: S. cerevisiae mlh1 rad18 strain growth inhibition; at 50.0 µM (retest, dose inferred, filed as 5.0); active compounds read high
The panel holds about 79,000 compounds, 15% with a hit somewhere; the sample as a whole holds those more often. Calls of active or inactive are those of the source. Rule as the data show it: active = growth inhibition above about 70%; inactive = the rest.
growth inhibition by entry:

Some compounds with recorded growth inhibition:
COMPOUND	MEASURED ENDPOINT	RESULT
O=C1C=C(c2ccccc2)OC1(Nc1ccccc1)c1ccccc1 (stereo not drawn)	growth inhibition	67% (inactive)
N#[N+]c1c([O-])ccc2nc3ccccc3nc12	growth inhibition	-56% (inactive)
CCC1([N+](=O)[O-])COC(c2ccc3c(c2)OCO3)OC1 (stereo not drawn)	growth inhibition	-6% (inactive)
COc1ccc(C(c2c(O)c3ccccc3oc2=O)N2CCOCC2)cc1 (stereo not drawn)	growth inhibition	-30% (inactive)

Ask: Using the record for O=C(CC(=O)c1cccnc1)c1cccnc1 , state its measured growth inhibition.
Result: 98% (active)

Ask: Using the record for CCOc1ccc(/C=N\NC(=O)c2ccco2)cc1OCC , state its measured growth inhibition.
Result: -12% (inactive)

Ask: Using the record for CCC1=C(C)/C(=C/c2[nH]c(C(Br)Br)c(CC)c2C)N=C1C(Br)Br , state its measured growth inhibition.
Result: 98% (active)

Ask: Using the record for COc1ccc(C(C)=O)c(OC(=O)c2ccccc2)c1OC(=O)c1ccccc1 , state its measured growth inhibition.
Result: 4% (inactive)

====

- PROCEDURE SUMMARY: NCI Yeast Anticancer Drug Screen. Data for the rad50 strain (AID 155);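 further: 0% = growth of vehicle-only cultures of the same strain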
- TEST PARAMETERS: S. cerevisiae rad50 strain growth inhibition; at 50.0 µM
The panel holds about 79,000 compounds, 15% with a hit somewhere; the sample as a whole holds those more often. Activity calls are given as the source filed them. No stated cut-off is given here; in the data, active means growth inhibition above about 70%; inactive means the rest.
Please reply with one of these outcomes: active, inactive

These recorded examples may help you get a feel for the data.
COMPOUND	CLASS NAME
CN1C(=O)CCCCCCCCCCSc2ccccc21	active
Nc1n[nH]c(=O)c2cccnc12	inactive
CCCCC(=O)N/N=C(\C)[C@]1(O)Cc2c(O)c3c(c(O)c2[C@@H](OC2CC(N)C(O)C(C)O2)C1)C(=O)c1c(OC)cccc1C3=O (some centres undefined)	active
COC(=O)N/N=C(/CC1(O)C(=O)Nc2ccccc21)c1ccc(Cl)cc1Cl (centres undefined)	active
CC1CCC2(CC1)OCC(C)O2 (centres undefined)	inactive

Ask: What call does the record list for Oc1ccc(O)c2c1N=NC21c2ccccc2Oc2ccccc21 ?
Result: inactive

Ask: What call does the record list for Clc1nssc1=Nc1nonc1-c1ccccc1 ?
Result: active

Ask: What call does the record list for Cc1cc(NCCO)nc2c1ccc1ccccc12 ?
Result: inactive

Ask: What call does the record list for COc1cc(C2c3cc4c(cc3[C@@H](Nc3cccc(O)c3)C3COC(=O)[C@H]23)OCO4)cc(OC)c1O (some centres undefined) ?
Result: active

Ask: What call does the record list for Cc1ccc2ccc3c(CCN(C)C)cc4c(c3c2c1O)OCO4 ?
Result: active

====

- PROCEDURE SUMMARY: NCI Yeast Anticancer Drug Screen. Data for the rad50 strain (AID 155);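 further: 0% = growth of vehicle-only cultures of the same strain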
- TEST PARAMETERS: S. cerevisiae rad50 strain growth inhibition; at 5.0 µM (retest, dose inferred, filed as 0.5); active compounds read high
- Protocol: Growth inhibition of yeast strains with defined genetic alterations is measured as a screen for potential anti-cancer activity. Selected strains with alterations in DNA damage repair or cell cycle control were exposed to compounds and growth inhibition was measured relative to vehicle treated controls. The strain used in this assay is rad50
Compounds without any hit were thinned out: in the full panel of roughly 79,000, 15% have a hit.
growth inhibition by entry:
Answer format: numeric, % implied, no suffix.

Some molecules with recorded growth inhibition:
MOLECULE	growth inhibition (%)
COc1ccc2c(c1)nc1cc(Cl)ccc1[n+]2C	8
O=C(O)c1ccccc1C(=O)c1ccc2c(c1)Cc1ccccc1-2	-5
O=C(OC1C=C=CS(=O)(=O)CC#C/C=C\1)c1cnc2ccccc2n1 (stereo not drawn)	15
CC(C)COC(=O)c1ccc(NC(=O)CCl)cc1	0

Ask: Using the record for COC(=O)C1c2cc(C)ccc2-c2ccc(C)cc21 , state its measured growth inhibition.
Result: 31

Ask: Using the record for CN1C(=O)c2cccc3cc([N+](=O)[O-])cc(c23)C1=O , state its measured growth inhibition.
Result: 6

Ask: Using the record for CC12CCC(O)CC1=CCC1C2CCC2(C)/C(=C\C#N)CCC12 (stereo not drawn) , state its measured growth inhibition.
Result: -6

Ask: Using the record for CN(C)CCNC(=O)C(c1ccccc1)c1ccccc1 , state its measured growth inhibition.
Result: 31

Ask: Using the record for CC1(C)NC(=O)C(C)(C)NC1=O , state its measured growth inhibition.
Result: 4

Ask: Using the record for CCOC(=O)c1ccc(NC(=O)O/N=C(/Cl)CCl)cc1 , state its measured growth inhibition.
Result: -14

====

- PROCEDURE SUMMARY: NCI Yeast Anticancer Drug Screen. Data for the mec2-1 strain (AID 157)
- TEST PARAMETERS: S. cerevisiae mec2-1 strain, at 5.0 µM (retest, dose inferred, filed as 0.5), active compounds read high
The panel holds about 79,000 compounds, 15% with a hit somewhere; the sample as a whole holds those more often.
growth inhibition by entry:
Answer format: numeric, % implied, no suffix.

Some compounds with recorded growth inhibition:
COMPOUND	NUMERIC VALUE
COC(=O)c1cc(=O)n(-c2ccccc2C(F)(F)F)c(SC)n1	14
CC(C)CCOC(=O)Nc1cccc(Cl)c1	-4

Ask: Using the record for CN(Cc1cnc2nc(N)nc(N)c2n1)c1ccc(C(=O)NC(CCC(=O)O)C(=O)O)cc1C(F)(F)F (stereo not drawn) , state its measured growth inhibition.
Result: 61

====

- PROCEDURE SUMMARY: NCI Yeast Anticancer Drug Screen. Data for the rad50 strain (AID 155);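 further: 0% = growth of vehicle-only cultures of the same strain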
- TEST PARAMETERS: S. cerevisiae rad50 strain growth inhibition; at 50.0 µM (retest, dose inferred, filed as 5.0)
This is part of a sample that, as a whole, favours compounds with a hit. Of some 79,000 tested, about 15% had one in any assay. The source made the active and inactive calls. Cut-off read from the data, not from the text of the source: active = growth inhibition above about 70%; inactive = the rest.
Please reply with one of these outcomes: active, inactive

Ask: What call does the record list for C[C@]12CC[C@H](O)C[C@@H]1CC[C@@H]1[C@@H]2CC[C@]2(C)[C@@H](c3cc(C(F)(F)F)n[nH]3)CC[C@@H]12 ?
Result: active

Ask: What call does the record list for C[n+]1c(-c2ccc(/C=N\NC(=O)c3ccc(C(=O)N/N=C/c4ccc(-c5cn6ccsc6[n+]5C)cc4)cc3)cc2)cn2ccsc21 ?
Result: active

Ask: What call does the record list for CC(=O)OC[C@@]1(C)[C@@H]2CC[C@]3(C)[C@H](C(=O)C=C4[C@@H]5CC(C)(C)CC[C@]5(C(=O)O)CC[C@]43C)[C@@]2(C)CC[C@@H]1OC(C)=O ?
Result: active

Ask: What call does the record list for COC(=O)CCC(=O)N1C/C(=C\c2ccccc2)C(=O)/C(=C/c2ccccc2)C1 ?
Result: inactive

Ask: What call does the record list for Clc1ccccc1C=Nc1cccc2ccccc12 ?
Result: inactive

Ask: What call does the record list for C=C1C(=O)O[C@@H]2C[C@@]3(C)CCC[C@H](C)C3=C[C@H]12 (tested in a mixture with another compound) ?
Result: active

Ask: What call does the record list for NS(=O)(=O)c1ccc(Nc2c3ccccc3nc3c(C(=O)NC(CO)(CO)CO)cccc23)cc1 ?
Result: inactive

Ask: What call does the record list for Nc1ccc(C(=O)N/N=C\c2cccc3ccccc23)cc1 ?
Result: inactive

Ask: What call does the record list for Cc1ccc(S(=O)(=O)NCCCSCCO)cc1 ?
Result: inactive
